From: patent US5508275A

- assay-info: Solubility in water and olive oil (Method III)
- test-context: water
- Method: a) Preparation of olive oil or aqueous solutions. 1 ml of olive oil or I ml of double-distilled water (or dilute NaOH pH=7.6) was added to 1 mg or 10 mg or 50 mg of the respective compound at 37° C. and it was checked whether a clear solution was obtained. The optionally centrifuged and decanted olive oil solutions were heated for 5 minutes using a Bunsen burner and the degree of browning of the olive oil was determined. […]
Listed next: entries and their corresponding solubility.

The examples below pair each entry with its known result.
compound	solubility
CCCCCCCCCCCCCCCCCCOCC(CO)OC(=O)c1cc(C(C)(C)C)c(O)c(C(C)(C)C)c1 (stereo not shown)	< 0.1 mg/mL
CCCCCCC#CC(=O)c1cc(C(C)(C)C)c(O)c(C(C)(C)C)c1	< 0.1 mg/mL
CCCCCCCCCCCCCCCCCCOC(=O)CCCCC1CCSS1 (stereo not shown)	< 0.1 mg/mL
CCCCCCCCCCCCCCCCCCNC(=O)CCCCC1CCSS1 (racemic) [Example 52, N-octadecyl-DL-α-lipoic acid amide]	< 0.1 mg/mL

Query: Check the records and state solubility for `CCCCCCCCCCCCCCCCCCCC(=O)C(=Cc1cc(C(C)(C)C)c(O)c(C(C)(C)C)c1)C(=O)OCC`
Reply: < 0.1 mg/mL

Query: Check the records and state solubility for CC(C)(C)c1cc(C2SCCC(CCCCC(=O)O)S2)cc(C(C)(C)C)c1O (stereo not shown)
Reply: < 0.1 mg/mL

Query: Check the records and state solubility for `CCCCCCCCCCCCCCCCCC(=O)OC[C@H](OC(=O)CCCCCCCCCCCCCCCCC)[C@H]1OC(=O)C(OP(=O)(OCC)OCC)=C1O`
Reply: < 0.1 mg/mL
